B1: CASP6 (parent)
chain: TCADRDNLTRRFSDLGFEVKCFND

variants of: B1; assay: protein stability index of a GFP-peptide fusion (GPS, HEK-293T) (PSI 1-6); higher = more stable; conditions: c terminus: a fixed tail appended;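 note: lentivirally expressed fusions sorted by FACS into six bins by GFP to DsRed ratio, PSI derived from sequencing read proportions per bin multiplied by bin number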
Reported values of protein stability index for individual entries
Field format: numeric only.

# annotated cases, reported protein stability index shown
# sequence-record, protein stability index
rows = [
    ("TCADRDNITRRFSDLGFEVKCFND [L8I]", 3.31),
    ("TCADRDNLTRRFSYLGFEVKCFND [D14Y]", 2.46),
    ("TCADRDNLTRRFEDLGFEVKCFND [S13E]", 3.84),
]

Note: attention shifts to another entry.
// query Which protein stability index is listed for TCADRDNLTRRFWDLGFEVKCFND [S13W] ?
// result 2.36
